# Lookup of reported ELISA signal keyed by entry
# target of assay: T1, His-tagged P3028 (human, not fully specified)
# T1 construct: the tag is put first after 'PGE73=His-tag-P3028'; also called PGE73; not shown: His-tag
# T1 peptide: {His‑tag}-VFDEFKPLVEEPQNLIK
# method notes: chip ELISA
No end group written: not given here.
reported metric: ELISA signal

{"binder": "KKLATFFVKLSLFTER [P28R D4A]", "measurement": 494}
{"binder": "KKLDRFFVKLSLFTER [P28R T5R]", "measurement": 430}
{"binder": "KKLDTFFVKLSLFTEL [P28R R16L]", "measurement": 217}
{"binder": "KKLDTFFVYLSLFTER [P28R K9Y]", "measurement": 198}
{"binder": "KKLDTFFVKLSLFTEM [P28R R16M]", "measurement": 238}
{"binder": "KYLDTFFVKLSLFTER [P28R K2Y]", "measurement": 301}
{"binder": "KKLDTFFVKLSKFTER [P28R L12K]", "measurement": 355}
{"binder": "KKLDTNFVKLSLFTER [P28R F6N]", "measurement": 446}
{"binder": "KKLDTFFVKLSLITER [P28R F13I]", "measurement": 468}
{"binder": "KVLDTFFVKLSLFTER [P28R K2V]", "measurement": 317}
{"binder": "KKLDTFFVKLSLFTKR [P28R E15K]", "measurement": 324}
{"binder": "KKLDTFFVKMSLFTER [P28R L10M]", "measurement": 460}
{"binder": "KKLDTFFVKLSDFTER [P28R L12D]", "measurement": 89}
{"binder": "KKNDTFFVKLSLFTER [P28R L3N]", "measurement": 374}
{"binder": "KKLDTFYVKLSLFTER [P28R F7Y]", "measurement": 334}
